Values were extracted from ChEMBL document CHEMBL1201862.

system: HOP-92; test: NCI tumour cell line growth inhibition, 48 h
Activity calls are given as the source filed them. Cut-off read from the data, not from the text of the source: active = GI50 up to about 1.1 µM and inactive = higher.
Metric Name: GI50

1) C[C@@H]1C[C@@H]([C@H](O)CC2CC(=O)NC(=O)C2)C(=O)[C@@H](C)C1 [CYCLOHEXIMIDE]
0.0366 µM (active)
2) COc1ccc(/C(C#N)=C(/N)SCc2ccccc2Cl)cc1
17.8 µM (inactive)
3) CC(C)(Oc1ccc(Cl)cc1)C(=O)N(C(=O)N1CCC(c2ccccc2)CC1)c1ccccc1
> 100 µM (inactive)

Please find the next compound below.
Briefly, GI50 measured for N#Cc1nc(C(O)c2ccccc2)oc1N (centres undefined) : > 100 µM (inactive)
